Molecular target: HSV-1 ribonucleotide reductase (partially purified) (Human herpesvirus 1, UniProt P08543)
Construct: obtained from quiescent BHK-21/C13 cells infected with strain F HSV-1 virus; endogenous in cells; host or cells: quiescent BHK-21/C13 cells infected with HSV-1 strain F; enzyme partially purified (Cohen et al., J. Gen. Virol. 66, 733 (1985))
Sequence (P08543 whole entry): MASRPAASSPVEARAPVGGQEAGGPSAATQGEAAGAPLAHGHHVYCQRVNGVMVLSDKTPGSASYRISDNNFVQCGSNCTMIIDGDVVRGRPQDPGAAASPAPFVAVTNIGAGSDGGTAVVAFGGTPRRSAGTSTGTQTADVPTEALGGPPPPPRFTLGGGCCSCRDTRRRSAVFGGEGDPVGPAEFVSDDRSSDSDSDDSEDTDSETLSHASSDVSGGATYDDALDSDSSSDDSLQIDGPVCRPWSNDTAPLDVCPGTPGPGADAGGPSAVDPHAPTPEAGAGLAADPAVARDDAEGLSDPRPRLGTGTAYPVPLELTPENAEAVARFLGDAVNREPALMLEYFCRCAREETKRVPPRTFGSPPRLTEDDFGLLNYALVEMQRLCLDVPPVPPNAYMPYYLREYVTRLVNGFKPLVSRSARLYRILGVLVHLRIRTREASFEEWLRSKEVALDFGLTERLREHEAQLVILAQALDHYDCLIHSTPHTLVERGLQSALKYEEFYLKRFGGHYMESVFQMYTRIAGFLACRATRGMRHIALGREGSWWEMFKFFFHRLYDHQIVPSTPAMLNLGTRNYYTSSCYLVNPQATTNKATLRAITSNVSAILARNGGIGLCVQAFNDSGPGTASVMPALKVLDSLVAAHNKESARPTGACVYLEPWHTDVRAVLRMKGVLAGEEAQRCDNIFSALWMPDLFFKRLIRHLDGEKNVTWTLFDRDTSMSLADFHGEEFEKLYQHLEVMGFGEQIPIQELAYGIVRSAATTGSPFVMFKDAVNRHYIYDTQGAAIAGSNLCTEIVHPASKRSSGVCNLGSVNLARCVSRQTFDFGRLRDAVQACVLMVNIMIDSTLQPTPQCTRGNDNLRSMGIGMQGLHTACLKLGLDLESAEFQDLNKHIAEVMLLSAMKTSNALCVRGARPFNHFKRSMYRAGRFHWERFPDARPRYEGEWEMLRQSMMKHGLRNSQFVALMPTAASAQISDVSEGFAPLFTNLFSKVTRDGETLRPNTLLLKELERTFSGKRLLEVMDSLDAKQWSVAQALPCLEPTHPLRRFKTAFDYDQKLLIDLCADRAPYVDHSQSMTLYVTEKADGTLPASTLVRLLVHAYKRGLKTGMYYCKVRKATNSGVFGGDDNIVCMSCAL
Experiment: biochemical
Assay type: biochemical
Where a SMILES comes first, the peptide text is derived from it. [ ]: non-standard residue; d: D form. The star is where a group is joined. Hydrocinnamoyl = O=C(CCc1ccccc1)*; O(2S-octyl) = CCCCCC[C@H](C)O*; NMeV = CN[C@H](C(=O)O)C(C)C; Pyrrolidide = C1CCN(*)C1; X6 = CC(C)C[C@H](C)N*; X2 = CCCCCCCCCCCCO*; X4 = CCCCCCCCN(C)*
Below, each of the compounds is paired with its reported IC50 value.
Give the quantity in µM, number only.

Worked examples follow.
compound="CC[C@H](C)[C@H](NC(=O)[C@H](C(C)C)N(C)C(=O)CCc1ccccc1)C(=O)N[C@@H](CC(=O)N1CCCC1)C(=O)N[C@@H](CC(=O)O)C(=O)N[C@@H](C)CC(C)C [Entry 41] (Hydrocinnamoyl-[NMeV]ID(Pyrrolidide)D-X6)" target_or_test_system="HSV-1 ribonucleotide reductase (partially purified) (Human herpesvirus 1, UniProt P08543)" recorded_measurement=2.6
compound="CCCCCCCCCCCCOC(=O)C[C@H](NC(=O)[C@@H](NC(=O)[C@H](C(C)C)N(C)C(=O)CCc1ccccc1)[C@@H](C)CC)C(=O)N[C@@H](CC(=O)O)C(=O)N[C@@H](CC(C)C)C(=O)O [Entry 29] (Hydrocinnamoyl-[NMeV]ID(X2)DL-OH)" target_or_test_system="HSV-1 ribonucleotide reductase (partially purified) (Human herpesvirus 1, UniProt P08543)" recorded_measurement=4.2
compound="CCCCCC[C@H](C)OC(=O)C[C@H](NC(=O)[C@@H](NC(=O)[C@H](C(C)C)N(C)C(=O)CCc1ccccc1)[C@@H](C)CC)C(=O)N[C@@H](CC(=O)O)C(=O)N[C@@H](CC(C)C)C(=O)OC [Entry 37] (Hydrocinnamoyl-[NMeV]ID(O(2S-octyl))DL-OMe)" target_or_test_system="HSV-1 ribonucleotide reductase (partially purified) (Human herpesvirus 1, UniProt P08543)" recorded_measurement=2

Write down IC50 measured for item CCCCCCCCN(C)C(=O)C[C@H](NC(=O)[C@@H](NC(=O)[C@H](C(C)C)N(C)C(=O)CCc1ccccc1)[C@@H](C)CC)C(=O)N[C@@H](CC(=O)O)C(=O)N[C@@H](CC(C)C)C(=O)O [Entry 32] (Hydrocinnamoyl-[NMeV]ID(X4)DL-OH)
0.26

###

Below, each of the molecules is paired with its reported IC50 value.
Biological target: HSV-1 ribonucleotide reductase (partially purified) (Human herpesvirus 1)
Construct: obtained from quiescent BHK-21/C13 cells infected with strain F HSV-1 virus; endogenous in cells; host or cells: quiescent BHK-21/C13 cells infected with HSV-1 strain F; enzyme partially purified (Cohen et al., J. Gen. Virol. 66, 733 (1985))
Experiment: biochemical
Format: biochemical
Where a SMILES comes first, the peptide text is derived from it. [ ]: non-standard residue; d: D form. The star is where a group is joined. Gly(1-COOH-cBu) = N[C@H](C(=O)O)C1(C(=O)O)CCC1; Hydrocinnamoyl = O=C(CCc1ccccc1)*; Pentanoyl(4-Me) = CC(C)CCC(=O)*; O(2S-octyl) = CCCCCC[C@H](C)O*; Tle = CC(C)(C)[C@H](N)C(=O)O; NMeV = CN[C@H](C(=O)O)C(C)C; Pyrrolidide = C1CCN(*)C1; NHIsopentyl = CC(C)CCN*
Give the quantity in µM, number only.

Worked examples follow.
molecule="CC(C)C[C@H](NC(=O)[C@@H](NC(=O)[C@H](CC(=O)N1CCCC1)NC(=O)[C@@H](NC(=O)[C@H](C(C)C)N(C)C(=O)CCc1ccccc1)C(C)(C)C)C1(C(=O)O)CCC1)C(=O)O [Entry 33] (Hydrocinnamoyl-[NMeV][Tle]D(Pyrrolidide)[Gly(1-COOH-cBu)]L-OH)" recorded_measurement=0.06
molecule="CCCCCC[C@H](C)OC(=O)C[C@H](NC(=O)[C@@H](NC(=O)[C@H](C(C)C)N(C)C(=O)CCc1ccccc1)[C@@H](C)CC)C(=O)N[C@@H](CC(=O)O)C(=O)N[C@@H](CC(C)C)C(N)=O [Entry 31] (Hydrocinnamoyl-[NMeV]ID(O(2S-octyl))DL-NH2)" recorded_measurement=1.9
molecule=CC[C@H](C)[C@H](NC(=O)[C@H](C(C)C)N(C)C(=O)CCc1ccccc1)C(=O)N[C@@H](CC(=O)N1CCCC1)C(=O)N[C@@H](CC(=O)O)C(=S)N[C@@H](CC(C)C)C(=O)O recorded_measurement=0.16
molecule="CC[C@H](C)[C@H](NC(=O)[C@H](C(C)C)N(C)C(=O)CCc1ccccc1)C(=O)N[C@@H](CC(=O)N1CCCC1)C(=O)N[C@@H](CC(=O)O)C(=O)NCCC(C)C [Entry 38] (Hydrocinnamoyl-[NMeV]ID(Pyrrolidide)D-NHIsopentyl)" recorded_measurement=1.3

Would you kindly look at the next entry?
Please indicate recorded IC50 of CCCCCC[C@H](C)OC(=O)C[C@H](NC(=O)[C@@H](NC(=O)[C@H](C(C)C)N(C)C(=O)CCC(C)C)[C@@H](C)CC)C(=O)N[C@@H](CC(=O)O)C(=O)N[C@@H](CC(C)C)C(=O)O [Entry 30] ({Pentanoyl(4-Me)}-[NMeV]ID(O(2S-octyl))DL-OH) measured with HSV-1 ribonucleotide reductase (partially purified) (Human herpesvirus 1).
1.7
